Target: Aldo-keto reductase family 1 member B1 (Rattus norvegicus)
Assay: Inhibition of Rattus norvegicus albino (rat) kidney aldose reductase using DL-glyceraldehyde as substrate assessed as decrease in NADPH concentRattus norvegicus (rat) ion at 10^-4 M after 5 min by spectrophotometrically
Kindly state inhibition for each of the entries shown.
One number for each entry, in %.

Solved entries:
Cc1cc(-c2ccccc2)nn1-c1ccc(=O)n(CC(=O)NCCc2ccccc2)n1; 0
O=C(CCc1cc(-c2ccc(Cl)cc2)n(-c2ccc(Cl)nn2)n1)N1CCCCC1; 0
Cc1nn(-c2ccc(=O)n(CC(=O)O)n2)c(C)c1Cl; 0.98
Cc1cc(-c2ccccc2)nn1-c1ccc(=O)n(CC(=O)N2CCN(c3ccccc3F)CC2)n1; 1.85

In the following, a different molecule is considered.
Exercise: Write down inhibition measured for item Cc1cc(-c2ccccc2)nn1-c1ccc(=O)n(CC(=O)Nc2cccnc2)n1
Key: 3.37
